Molecular target: Indoleamine 2,3-dioxygenase 1 (Homo sapiens)
Test: Inhibition of IDO1 in interferon-gamma-induced human HeLa cells using L-tryptophan substrate incubated for 24 hrs
Type: cell-based
Endpoint name: IC50 (nM)

C/C(=C\C(=O)O)c1ccc(N2CCOCC2)c(-n2cc(CNc3ccc(F)cc3)nn2)c1; 20000
CCCCN(CCCC)c1ccc(/C(C)=C/C(=O)O)cc1NC(=O)N/N=C/c1ccccc1C(F)(F)F; 2830
C/C(=C\C(=O)O)c1ccc(N(CC(C)C)CC(C)C)c(NC(=O)N/N=C/c2ccc(Cl)cc2)c1; 1020
CCCCN(CCCC)c1ccc(/C(C)=C/C(=O)O)cc1NC(=O)N/N=C/c1ccc(Cl)cc1; 3870
C/C(=C\C(=O)O)c1ccc(N(CC(C)C)CC(C)C)c(NC(=O)N/N=C/c2ccccc2F)c1; 1950

* * *

Entries and their pIC50
Target: Indoleamine 2,3-dioxygenase 1 (Homo sapiens, UniProt P14902)
Sequence (P14902 whole entry): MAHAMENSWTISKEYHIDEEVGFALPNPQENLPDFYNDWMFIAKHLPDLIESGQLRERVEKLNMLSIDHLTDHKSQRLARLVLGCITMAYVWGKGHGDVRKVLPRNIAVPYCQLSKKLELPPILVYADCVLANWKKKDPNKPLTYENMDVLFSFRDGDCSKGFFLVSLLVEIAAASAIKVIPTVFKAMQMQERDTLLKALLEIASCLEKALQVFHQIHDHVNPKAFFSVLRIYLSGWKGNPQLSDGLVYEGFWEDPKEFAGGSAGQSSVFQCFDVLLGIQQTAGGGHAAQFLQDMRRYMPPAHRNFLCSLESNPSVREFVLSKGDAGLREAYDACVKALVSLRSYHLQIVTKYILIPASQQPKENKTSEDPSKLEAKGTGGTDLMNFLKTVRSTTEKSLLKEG
Assay: Inhibition of purified recombinant human IDO1 using L-tryptophan substrate incubated fro 30 mins
pIC50: −log10 of the molar value.
Endpoint name: pIC50

C/C(=C\C(=O)O)c1ccc(N(CC(C)C)CC(C)C)c(NC(=O)N/N=C/c2ccc(Cl)cc2)c1; 4.99
CCCCN(CCCC)c1ccc(/C(C)=C/C(=O)O)cc1NC(=O)N/N=C/c1ccccc1C(F)(F)F; 4.91
CCCCN(CCCC)c1ccc(/C(C)=C/C(=O)O)cc1NC(=O)N/N=C/c1ccc(Cl)cc1; 4.84
C/C(=C\C(=O)O)c1ccc(N(CC(C)C)CC(C)C)c(NC(=O)N/N=C/c2ccccc2F)c1; 5.00
C/C(=C\C(=O)O)c1ccc(N2CCOCC2)c(-n2cc(CNc3ccc(F)cc3)nn2)c1; 4.23
